Measured koff of individual entries
testTarget: T1, human CI-M6PR domain1-3His6 (human, UniProt P11717 41-467)
T1 construct: Recombinant, made in HEK293 cells; Biotinylated with NHS-PEG4-biotin for BLI; unlabelled in SEC-MALLS and crystallisation; also called CI-M6PR hDom1-3His6; hDom1-3His6
protocol: BLI, association pH 7.4, dissociation at pH 6.0, mean of local fits
Description: FIGS. 9A-9E. […] BLI was performed on an Octet Red96 (FortéBio) instrument in kinetics buffer (0.2 M Na₂HPO₄, 0.1 M Na⁺citrate, 0.01% bovine serum albumin, 0.002% Tween-20). Biotinylated human domain₁₋₃His₆ was immobilized on Streptavidin SA biosensors (Sartorius) to a signal of 0.6 nm. […] The degree of association and dissociation was measured in δ nm over time(s). FIGS. 10A-10E. […] The degree of association and dissociation was measured in δ nm over time(s).
The reply should contain only the number, in s⁻¹.

• anti-CI-M6PR VHH8 (VHH, Purified by IMAC, so tagged; Labelled with Alexa Fluor 488 (NHS ester) in the imaging experiments) VHH: QVQLQESGGGLVQAGGSLRLSCEASGRTFNTYNWGWFRQAPGKEREFVAAIRWSSSKTSYADSVKGRFTISRDNAKNTIYLQMNSLKPEDTAVYYCAASIVDFTTNPSHFGSWGQGTQVTVSS = 0.00091
• humanized variant VHH8h3 (VHH, Made in E. coli, IMAC purified; tag not specified) VHH: DVQLVESGGGLVQAGGSLRLSCAASGRTFNTYNWGWFRQAPGKEREFVAAIRWSSSKTSYADSVKGRFTISRDNSKNTVYLQMNSLRPEDTAVYYCAASIVDFTTNPSHFGSWGQGTLVTVSS = 0.002
• anti-CI-M6PR VHH7 (VHH, Purified by IMAC, so tagged; Labelled with Alexa Fluor 488 (NHS ester) in the imaging experiments) VHH: QVQLQESGGGLVQPGGSLRLSCAASGIIFSDNRMDWYRQAPGKQREWVATLASYGWKTYADSVKGRFTISRDNTKNTVYLRMNSLKPEDTAVYYCKASSPVLNDIWGQGTQVTVSS = 0.0099

Then this binder:
Enquiry: Need koff of humanized variant VHH7h3 (VHH, Made in E. coli, IMAC purified; tag not specified) VHH: DVQLVESGGGLVQPGGSLRLSCAASGIIFSDNRMDWYRQAPGKQREWVATLASYGWKTYADSVKGRFTISRDNTKNTVYLQMNSLRPEDTAVYYCKASSPVLNDIWGQGTLVTVSS , thanks.
Return: 0.013
